All values here come from PubChem BioAssay AID1963850.

In this section we review reported viability, T/C values for a set of compounds.
Test system: 192522-019-R-J2-PDC complex tumor spheroid viability
Assay: Anticancer human tumor 192522-019-R-J2-PDC patient-derived colon adenocarcinoma cell line growth inhibition [POLQ]
Conditions: second compound 0.316 µM; first compound 3.16 µM; stronger effect = lower value

>  <compound>
CC1COCCN1c1cc(-c2ccnn2C)c2ccnc(-c3ccn[nH]3)c2n1 (stereo not drawn) + COC1C(OC(N)=O)C(O)C(Oc2ccc3c(O)c(NC(=O)c4ccc(O)c(CC=C(C)C)c4)c(=O)oc3c2C)OC1(C)C

>  <study_system>
192522-019-R-J2-PDC complex tumor spheroid viability

>  <viability, T/C / %>
39.1

$$$$
>  <compound>
CCc1cc2c(N3CCc4c(cc(Cn5ccnc5)cc4-c4cn(C)nc4C(F)(F)F)C3=O)cc(C)nc2c(OC)n1 + COC1C(OC(N)=O)C(O)C(Oc2ccc3c(O)c(NC(=O)c4ccc(O)c(CC=C(C)C)c4)c(=O)oc3c2C)OC1(C)C

>  <study_system>
192522-019-R-J2-PDC complex tumor spheroid viability

>  <viability, T/C / %>
82.6

$$$$
>  <compound>
COc1cc2cc(C(=O)CCC(=O)O)sc2cc1OC + Cc1cccc(N(C)C(=O)C2C(O)CCN2c2nc(C)cc(C(F)(F)F)c2C#N)c1

>  <study_system>
192522-019-R-J2-PDC complex tumor spheroid viability

>  <viability, T/C / %>
104

$$$$

====

# Lookup of reported viability, T/C keyed by entry
System: 192522-019-R-J2-PDC complex tumor spheroid viability
Experiment: Anticancer human tumor 192522-019-R-J2-PDC cell line growth inhibition [POLQ];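 also: spheroids exposed to drugs for seven days before reading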;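 as to viability, T/C: 100% = DMSO vehicle control viability in luminescence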
Conditions: second compound 3.16 µM; first compound 10 µM; stronger effect = lower value

>  <compound>
CC1COCCN1c1cc(C2(O)CC3CCC(C2)O3)c2cnn(-c3ccn[nH]3)c2n1 (stereo not drawn) + Cc1cccc(N(C)C(=O)C2C(O)CCN2c2nc(C)cc(C(F)(F)F)c2C#N)c1

>  <study_system>
192522-019-R-J2-PDC complex tumor spheroid viability

>  <viability, T/C, %>
56.8

$$$$
>  <compound>
CC(C)n1c(=O)n(C)c2cnc3cc(F)c(-c4ccc(OCCCN5CCCCC5)nc4)cc3c21 + COC1C(OC(N)=O)C(O)C(Oc2ccc3c(O)c(NC(=O)c4ccc(O)c(CC=C(C)C)c4)c(=O)oc3c2C)OC1(C)C

>  <study_system>
192522-019-R-J2-PDC complex tumor spheroid viability

>  <viability, T/C, %>
102

$$$$
>  <compound>
CC1COCCN1c1cc(C2(S(C)(=N)=O)CC2)nc(-c2ccnc3[nH]ccc23)n1 (stereo not drawn) + COC1C(OC(N)=O)C(O)C(Oc2ccc3c(O)c(NC(=O)c4ccc(O)c(CC=C(C)C)c4)c(=O)oc3c2C)OC1(C)C

>  <study_system>
192522-019-R-J2-PDC complex tumor spheroid viability

>  <viability, T/C, %>
37.8

$$$$

====

Test system: 192522-019-R-J2-PDC complex tumor spheroid viability
Assay: Anticancer human tumor 192522-019-R-J2-PDC cell line growth inhibition [POLQ];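 also: spheroids exposed to drugs for seven days before reading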
Settings: curve of first compound; second compound 3.16 µM
experimental_endpoint: IC50

>  <compound>
COc1cc2cc(C(=O)CCC(=O)O)sc2cc1OC + COC1C(OC(N)=O)C(O)C(Oc2ccc3c(O)c(NC(=O)c4ccc(O)c(CC=C(C)C)c4)c(=O)oc3c2C)OC1(C)C

>  <experimental_endpoint>
IC50

>  <experimental_result>
> 10 µM

$$$$
>  <compound>
Nc1ccn(C2OC(CO)C(O)C2(F)F)c(=O)n1 (stereo not given) + Nc1ccc(C#CCN(C(=O)Cc2ncc(C(F)(F)F)cc2C(F)(F)F)c2ccc(F)cc2)nn1

>  <experimental_endpoint>
IC50

>  <experimental_result>
> 10 µM

$$$$
>  <compound>
CCc1cc2c(N3CCc4c(cc(Cn5ccnc5)cc4-c4cn(C)nc4C(F)(F)F)C3=O)cc(C)nc2c(OC)n1 + COC1C(OC(N)=O)C(O)C(Oc2ccc3c(O)c(NC(=O)c4ccc(O)c(CC=C(C)C)c4)c(=O)oc3c2C)OC1(C)C

>  <experimental_endpoint>
IC50

>  <experimental_result>
> 10 µM

$$$$
>  <compound>
CC1COCCN1c1cc(-c2ccnn2C)c2ccnc(-c3ccn[nH]3)c2n1 (stereo not given) + Cc1cccc(N(C)C(=O)C2C(O)CCN2c2nc(C)cc(C(F)(F)F)c2C#N)c1

>  <experimental_endpoint>
IC50

>  <experimental_result>
0.402 µM

$$$$
>  <compound>
COc1cccc2c1C(=O)c1c(O)c3c(c(O)c1C2=O)CC(O)(C(=O)CO)CC3OC1CC(N)C(O)C(C)O1 (stereo not given) + COC1C(OC(N)=O)C(O)C(Oc2ccc3c(O)c(NC(=O)c4ccc(O)c(CC=C(C)C)c4)c(=O)oc3c2C)OC1(C)C

>  <experimental_endpoint>
IC50

>  <experimental_result>
> 10 µM

$$$$
